Data provenance is patent EP4582418A1.

- TEST DETAILS: Stability test under influencing factors (high temperature, high humidity, illumination)
- Type: physicochemical
- ASSAY CONDITIONS: Left to stand open at 60 °C for 30 days
Overview of recorded Purity for various compounds

| COMPOUND | Purity |
| --- | --- |
| COc1cc2nccc(Oc3ccc(NC(=O)c4nn(C(C)C)cc(-c5ccc(F)cc5)c4=O)nc3)c2cc1OC [Crystal form I] | 99.67% |
| COc1cc2nccc(Oc3ccc(NC(=O)c4nn(C(C)C)cc(-c5ccc(F)cc5)c4=O)nc3)c2cc1OC [Crystal form IV] | 99.87% |
| COc1cc2nccc(Oc3ccc(NC(=O)c4nn(C(C)C)cc(-c5ccc(F)cc5)c4=O)nc3)c2cc1OC [Crystal form II] | 99.72% |
| COc1cc2nccc(Oc3ccc(NC(=O)c4nn(C(C)C)cc(-c5ccc(F)cc5)c4=O)nc3)c2cc1OC [Crystal form III] | 99.89% |

* * *

- TEST DETAILS: Solubility in FaSSIF (pH 6.5) and FeSSIF (pH 5.0) buffer solutions
- Format: physicochemical
- ASSAY CONDITIONS: FeSSIF (pH 5.0), 37 °C, shaken 24 h
- Procedure: Test substances: the crystal forms I, II, III, and IV of the methanesulfonate of the compound of formula (I). […] An appropriate amount of each test substance was placed into separate 10 mL PE tubes, and FaSSIF (pH 6.5) buffer solution and FeSSIF (pH 5.0) buffer solution, each 10 mL, were added into the tubes, respectively. […] The supernatants were diluted, and the solubility of the supernatants was measured.
QUANTITY NAME: 24-hour solubility in buffer solutions with different pH values pH5.0

| COMPOUND | OBSERVED RESULT |
| --- | --- |
| COc1cc2nccc(Oc3ccc(NC(=O)c4nn(C(C)C)cc(-c5ccc(F)cc5)c4=O)nc3)c2cc1OC [Crystal form IV] | 0.31 mg/mL |
| COc1cc2nccc(Oc3ccc(NC(=O)c4nn(C(C)C)cc(-c5ccc(F)cc5)c4=O)nc3)c2cc1OC [Crystal form I] | 0.29 mg/mL |
| COc1cc2nccc(Oc3ccc(NC(=O)c4nn(C(C)C)cc(-c5ccc(F)cc5)c4=O)nc3)c2cc1OC [Crystal form III] | 0.025 mg/mL |
| COc1cc2nccc(Oc3ccc(NC(=O)c4nn(C(C)C)cc(-c5ccc(F)cc5)c4=O)nc3)c2cc1OC [Compound of formula (I)] | 0.004 mg/mL |
| COc1cc2nccc(Oc3ccc(NC(=O)c4nn(C(C)C)cc(-c5ccc(F)cc5)c4=O)nc3)c2cc1OC [Crystal form II] | 0.31 mg/mL |

* * *

- TEST DETAILS: PK evaluation of crystal forms in rats
- Format: in vivo
- ASSAY CONDITIONS: SD, rat, plasma, po, 60 mg/kg, median, n = 3, read-out: Tmax
QUANTITY NAME: Tmax (h)

| MOLECULE | OBSERVED RESULT |
| --- | --- |
| COc1cc2nccc(Oc3ccc(NC(=O)c4nn(C(C)C)cc(-c5ccc(F)cc5)c4=O)nc3)c2cc1OC [Crystal form I] | 8 |

* * *

- TEST DETAILS: PK evaluation of crystal forms in rats
- Format: in vivo
- ASSAY CONDITIONS: SD, rat, plasma, po, 60 mg/kg, n = 3, read-out: Cmax

| COMPOUND | Cmax / µg/mL |
| --- | --- |
| COc1cc2nccc(Oc3ccc(NC(=O)c4nn(C(C)C)cc(-c5ccc(F)cc5)c4=O)nc3)c2cc1OC [Crystal form I] | 69 |

* * *

- TEST DETAILS: Stability test under influencing factors (high temperature, high humidity, illumination)
- Format: physicochemical
- ASSAY CONDITIONS: 0 days
- Source text: Test substances: the crystal forms I, II, III, and IV of the methanesulfonate of the compound of formula (I) of the present disclosure. […]

| COMPOUND | Purity (%) |
| --- | --- |
| COc1cc2nccc(Oc3ccc(NC(=O)c4nn(C(C)C)cc(-c5ccc(F)cc5)c4=O)nc3)c2cc1OC [Crystal form IV] | 99.91 |
| COc1cc2nccc(Oc3ccc(NC(=O)c4nn(C(C)C)cc(-c5ccc(F)cc5)c4=O)nc3)c2cc1OC [Crystal form I] | 99.69 |
| COc1cc2nccc(Oc3ccc(NC(=O)c4nn(C(C)C)cc(-c5ccc(F)cc5)c4=O)nc3)c2cc1OC [Crystal form III] | 99.90 |
| COc1cc2nccc(Oc3ccc(NC(=O)c4nn(C(C)C)cc(-c5ccc(F)cc5)c4=O)nc3)c2cc1OC [Crystal form II] | 99.74 |

* * *

- TEST DETAILS: Stability test under influencing factors (high temperature, high humidity, illumination)
- Assay type: physicochemical
- ASSAY CONDITIONS: Left to stand open at 60 °C for 5 days

| MOLECULE | UNITS OF MEASURE | Purity |
| --- | --- | --- |
| COc1cc2nccc(Oc3ccc(NC(=O)c4nn(C(C)C)cc(-c5ccc(F)cc5)c4=O)nc3)c2cc1OC [Crystal form II] | % | 99.74 |
| COc1cc2nccc(Oc3ccc(NC(=O)c4nn(C(C)C)cc(-c5ccc(F)cc5)c4=O)nc3)c2cc1OC [Crystal form IV] | % | 99.91 |
| COc1cc2nccc(Oc3ccc(NC(=O)c4nn(C(C)C)cc(-c5ccc(F)cc5)c4=O)nc3)c2cc1OC [Crystal form III] | % | 99.90 |
| COc1cc2nccc(Oc3ccc(NC(=O)c4nn(C(C)C)cc(-c5ccc(F)cc5)c4=O)nc3)c2cc1OC [Crystal form I] | % | 99.70 |

* * *

- TEST DETAILS: PK evaluation of crystal forms in rats
- Type: in vivo
- ASSAY CONDITIONS: SD, rat, plasma, po, 60 mg/kg, 0-96 h, n = 3

| COMPOUND | AUC(0-t) / µg·h/mL |
| --- | --- |
| COc1cc2nccc(Oc3ccc(NC(=O)c4nn(C(C)C)cc(-c5ccc(F)cc5)c4=O)nc3)c2cc1OC [Crystal form I] | 4020 |

* * *

- TEST DETAILS: Solubility in FaSSIF (pH 6.5) and FeSSIF (pH 5.0) buffer solutions
- Type: physicochemical
- ASSAY CONDITIONS: FaSSIF (pH 6.5), 37 °C, shaken 24 h
QUANTITY NAME: 24-hour solubility in buffer solutions with different pH values pH6.5 (mg/mL)

| MOLECULE | UNITS OF MEASURE | OBSERVED RESULT |
| --- | --- | --- |
| COc1cc2nccc(Oc3ccc(NC(=O)c4nn(C(C)C)cc(-c5ccc(F)cc5)c4=O)nc3)c2cc1OC [Crystal form I] | mg/mL | 0.052 |
| COc1cc2nccc(Oc3ccc(NC(=O)c4nn(C(C)C)cc(-c5ccc(F)cc5)c4=O)nc3)c2cc1OC [Crystal form III] | mg/mL | 0.023 |
| COc1cc2nccc(Oc3ccc(NC(=O)c4nn(C(C)C)cc(-c5ccc(F)cc5)c4=O)nc3)c2cc1OC [Compound of formula (I)] | mg/mL | 0.0002 |
| COc1cc2nccc(Oc3ccc(NC(=O)c4nn(C(C)C)cc(-c5ccc(F)cc5)c4=O)nc3)c2cc1OC [Crystal form IV] | mg/mL | 0.023 |
| COc1cc2nccc(Oc3ccc(NC(=O)c4nn(C(C)C)cc(-c5ccc(F)cc5)c4=O)nc3)c2cc1OC [Crystal form II] | mg/mL | 0.023 |

* * *

- TEST DETAILS: Stability test under influencing factors (high temperature, high humidity, illumination)
- Assay type: physicochemical
- ASSAY CONDITIONS: Left to stand open at RH 92.5% for 5 days
// values below are reported Purity

| COMPOUND | UNITS OF MEASURE | Purity |
| --- | --- | --- |
| COc1cc2nccc(Oc3ccc(NC(=O)c4nn(C(C)C)cc(-c5ccc(F)cc5)c4=O)nc3)c2cc1OC [Crystal form I] | % | 99.69 |
| COc1cc2nccc(Oc3ccc(NC(=O)c4nn(C(C)C)cc(-c5ccc(F)cc5)c4=O)nc3)c2cc1OC [Crystal form II] | % | 99.74 |
| COc1cc2nccc(Oc3ccc(NC(=O)c4nn(C(C)C)cc(-c5ccc(F)cc5)c4=O)nc3)c2cc1OC [Crystal form III] | % | 99.90 |
| COc1cc2nccc(Oc3ccc(NC(=O)c4nn(C(C)C)cc(-c5ccc(F)cc5)c4=O)nc3)c2cc1OC [Crystal form IV] | % | 99.92 |

* * *

- SYSTEM NAME: H1299 cell pAXL (Homo sapiens, UniProt P30530)
- Construct: endogenous in cells; host or cells: H1299
- Sequence (P30530 26-894): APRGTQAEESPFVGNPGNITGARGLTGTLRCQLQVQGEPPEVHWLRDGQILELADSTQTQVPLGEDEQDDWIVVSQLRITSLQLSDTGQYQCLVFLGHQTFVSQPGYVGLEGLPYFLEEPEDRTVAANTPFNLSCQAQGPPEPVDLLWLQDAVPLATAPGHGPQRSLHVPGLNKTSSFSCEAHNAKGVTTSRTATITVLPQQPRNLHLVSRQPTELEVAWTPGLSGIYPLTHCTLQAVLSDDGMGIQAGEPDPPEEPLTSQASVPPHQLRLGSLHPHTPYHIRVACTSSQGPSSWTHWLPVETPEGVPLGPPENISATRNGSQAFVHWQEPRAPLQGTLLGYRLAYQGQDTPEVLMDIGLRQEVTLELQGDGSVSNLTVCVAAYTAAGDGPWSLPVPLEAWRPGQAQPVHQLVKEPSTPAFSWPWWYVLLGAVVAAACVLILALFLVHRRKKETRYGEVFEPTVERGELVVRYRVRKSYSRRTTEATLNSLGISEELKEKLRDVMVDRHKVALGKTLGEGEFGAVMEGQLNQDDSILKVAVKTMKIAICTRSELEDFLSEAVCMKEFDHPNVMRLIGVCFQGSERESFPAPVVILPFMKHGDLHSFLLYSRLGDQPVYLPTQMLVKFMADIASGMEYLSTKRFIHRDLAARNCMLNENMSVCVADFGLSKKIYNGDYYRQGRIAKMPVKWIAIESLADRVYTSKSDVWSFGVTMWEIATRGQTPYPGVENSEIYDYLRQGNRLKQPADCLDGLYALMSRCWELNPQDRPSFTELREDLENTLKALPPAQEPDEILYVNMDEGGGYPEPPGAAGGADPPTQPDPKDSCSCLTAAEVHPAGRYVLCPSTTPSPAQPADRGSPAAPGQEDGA
- TEST DETAILS: Inhibitory activity on cell pAXL (Western Blot, hGAS6 stimulation)
- Format: cell-based
- ASSAY CONDITIONS: H1299 cells, 60 min compound then hGAS6 200 ng/mL 60 min
pIC50: −log10 of the molar value.
QUANTITY NAME: pIC50

| COMPOUND | QUANTITY NAME | OBSERVED RESULT |
| --- | --- | --- |
| COc1cc2nccc(Oc3ccc(NC(=O)c4nn(C(C)C)cc(-c5ccc(F)cc5)c4=O)nc3)c2cc1OC [Crystal form I] | pIC50 | > 9.43 |
